Source listed as patent US20250270343A1.

# assay-target: T1, full-length untagged human GPNMB expressed on cells (human, UniProt Q14956 23-572)
# T1 sequence: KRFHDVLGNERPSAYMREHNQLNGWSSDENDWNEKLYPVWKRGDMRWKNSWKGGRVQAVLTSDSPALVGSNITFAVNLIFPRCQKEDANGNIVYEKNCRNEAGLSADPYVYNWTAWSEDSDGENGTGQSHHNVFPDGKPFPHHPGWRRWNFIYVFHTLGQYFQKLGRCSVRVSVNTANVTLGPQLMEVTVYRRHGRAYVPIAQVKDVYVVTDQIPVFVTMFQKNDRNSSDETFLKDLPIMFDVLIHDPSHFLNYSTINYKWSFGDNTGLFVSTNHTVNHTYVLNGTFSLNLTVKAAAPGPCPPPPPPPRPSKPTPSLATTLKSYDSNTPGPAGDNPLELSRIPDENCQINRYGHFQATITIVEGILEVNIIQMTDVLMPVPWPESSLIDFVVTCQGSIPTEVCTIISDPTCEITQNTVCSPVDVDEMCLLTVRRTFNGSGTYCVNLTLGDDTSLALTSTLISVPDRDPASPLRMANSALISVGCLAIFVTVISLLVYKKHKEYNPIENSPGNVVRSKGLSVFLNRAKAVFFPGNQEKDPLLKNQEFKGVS
# experimental-protocol: cell-based or functional assay
Entries and their measured Fold Increase PDL1 (max response at 1 µg/ml) follow.
Value expressed in fold; do not type the unit.

Any idea what Fold Increase PDL1 (max response at 1 µg/ml) was measured for anti-GPNMB antibody GPN-90 (antibody, V domains shown) VH: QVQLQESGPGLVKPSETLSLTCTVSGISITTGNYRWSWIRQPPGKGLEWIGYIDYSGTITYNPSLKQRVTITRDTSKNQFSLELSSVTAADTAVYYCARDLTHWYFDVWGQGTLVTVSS VL: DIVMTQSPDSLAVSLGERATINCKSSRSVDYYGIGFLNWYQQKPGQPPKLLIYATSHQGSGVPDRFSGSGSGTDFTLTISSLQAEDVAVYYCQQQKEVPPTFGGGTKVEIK ?
4.28

Could you now consider this next binder?
Any idea what Fold Increase PDL1 (max response at 1 µg/ml) was measured for anti-GPNMB antibody GPN-94 (antibody, V domains shown) VH: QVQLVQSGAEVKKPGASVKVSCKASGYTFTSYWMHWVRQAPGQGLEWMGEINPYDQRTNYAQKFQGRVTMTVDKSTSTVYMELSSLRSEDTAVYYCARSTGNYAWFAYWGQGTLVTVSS VL: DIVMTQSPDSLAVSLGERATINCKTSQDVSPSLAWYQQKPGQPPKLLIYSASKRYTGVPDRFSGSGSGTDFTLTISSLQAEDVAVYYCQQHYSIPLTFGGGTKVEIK ?
1.88
